assay: AUC (0 to t) in rat at 10 mg/kg, iv
Type: ADME, organism-based
condition context: in vivo
reported metric: AUC(0-t) (ng·h/mL)
Report only the number, with the unit ng·h/mL understood.

chemical structure: Cc1cc(/N=N/c2ccc3c(c2)CCC(=O)N3)c(N)cc1O
reported metric: AUC(0-t)
value measured: 14700

Consider the record given below.
Any idea what its AUC(0-t) is? The molecule is `Cc1cc(/N=N/c2ccc(S(=O)(=O)NC3CCCC3)cc2)c(N)cc1O` 11400

----------
pIC50, UniProt:Q92793: measured values
Sequence (Q92793 whole entry): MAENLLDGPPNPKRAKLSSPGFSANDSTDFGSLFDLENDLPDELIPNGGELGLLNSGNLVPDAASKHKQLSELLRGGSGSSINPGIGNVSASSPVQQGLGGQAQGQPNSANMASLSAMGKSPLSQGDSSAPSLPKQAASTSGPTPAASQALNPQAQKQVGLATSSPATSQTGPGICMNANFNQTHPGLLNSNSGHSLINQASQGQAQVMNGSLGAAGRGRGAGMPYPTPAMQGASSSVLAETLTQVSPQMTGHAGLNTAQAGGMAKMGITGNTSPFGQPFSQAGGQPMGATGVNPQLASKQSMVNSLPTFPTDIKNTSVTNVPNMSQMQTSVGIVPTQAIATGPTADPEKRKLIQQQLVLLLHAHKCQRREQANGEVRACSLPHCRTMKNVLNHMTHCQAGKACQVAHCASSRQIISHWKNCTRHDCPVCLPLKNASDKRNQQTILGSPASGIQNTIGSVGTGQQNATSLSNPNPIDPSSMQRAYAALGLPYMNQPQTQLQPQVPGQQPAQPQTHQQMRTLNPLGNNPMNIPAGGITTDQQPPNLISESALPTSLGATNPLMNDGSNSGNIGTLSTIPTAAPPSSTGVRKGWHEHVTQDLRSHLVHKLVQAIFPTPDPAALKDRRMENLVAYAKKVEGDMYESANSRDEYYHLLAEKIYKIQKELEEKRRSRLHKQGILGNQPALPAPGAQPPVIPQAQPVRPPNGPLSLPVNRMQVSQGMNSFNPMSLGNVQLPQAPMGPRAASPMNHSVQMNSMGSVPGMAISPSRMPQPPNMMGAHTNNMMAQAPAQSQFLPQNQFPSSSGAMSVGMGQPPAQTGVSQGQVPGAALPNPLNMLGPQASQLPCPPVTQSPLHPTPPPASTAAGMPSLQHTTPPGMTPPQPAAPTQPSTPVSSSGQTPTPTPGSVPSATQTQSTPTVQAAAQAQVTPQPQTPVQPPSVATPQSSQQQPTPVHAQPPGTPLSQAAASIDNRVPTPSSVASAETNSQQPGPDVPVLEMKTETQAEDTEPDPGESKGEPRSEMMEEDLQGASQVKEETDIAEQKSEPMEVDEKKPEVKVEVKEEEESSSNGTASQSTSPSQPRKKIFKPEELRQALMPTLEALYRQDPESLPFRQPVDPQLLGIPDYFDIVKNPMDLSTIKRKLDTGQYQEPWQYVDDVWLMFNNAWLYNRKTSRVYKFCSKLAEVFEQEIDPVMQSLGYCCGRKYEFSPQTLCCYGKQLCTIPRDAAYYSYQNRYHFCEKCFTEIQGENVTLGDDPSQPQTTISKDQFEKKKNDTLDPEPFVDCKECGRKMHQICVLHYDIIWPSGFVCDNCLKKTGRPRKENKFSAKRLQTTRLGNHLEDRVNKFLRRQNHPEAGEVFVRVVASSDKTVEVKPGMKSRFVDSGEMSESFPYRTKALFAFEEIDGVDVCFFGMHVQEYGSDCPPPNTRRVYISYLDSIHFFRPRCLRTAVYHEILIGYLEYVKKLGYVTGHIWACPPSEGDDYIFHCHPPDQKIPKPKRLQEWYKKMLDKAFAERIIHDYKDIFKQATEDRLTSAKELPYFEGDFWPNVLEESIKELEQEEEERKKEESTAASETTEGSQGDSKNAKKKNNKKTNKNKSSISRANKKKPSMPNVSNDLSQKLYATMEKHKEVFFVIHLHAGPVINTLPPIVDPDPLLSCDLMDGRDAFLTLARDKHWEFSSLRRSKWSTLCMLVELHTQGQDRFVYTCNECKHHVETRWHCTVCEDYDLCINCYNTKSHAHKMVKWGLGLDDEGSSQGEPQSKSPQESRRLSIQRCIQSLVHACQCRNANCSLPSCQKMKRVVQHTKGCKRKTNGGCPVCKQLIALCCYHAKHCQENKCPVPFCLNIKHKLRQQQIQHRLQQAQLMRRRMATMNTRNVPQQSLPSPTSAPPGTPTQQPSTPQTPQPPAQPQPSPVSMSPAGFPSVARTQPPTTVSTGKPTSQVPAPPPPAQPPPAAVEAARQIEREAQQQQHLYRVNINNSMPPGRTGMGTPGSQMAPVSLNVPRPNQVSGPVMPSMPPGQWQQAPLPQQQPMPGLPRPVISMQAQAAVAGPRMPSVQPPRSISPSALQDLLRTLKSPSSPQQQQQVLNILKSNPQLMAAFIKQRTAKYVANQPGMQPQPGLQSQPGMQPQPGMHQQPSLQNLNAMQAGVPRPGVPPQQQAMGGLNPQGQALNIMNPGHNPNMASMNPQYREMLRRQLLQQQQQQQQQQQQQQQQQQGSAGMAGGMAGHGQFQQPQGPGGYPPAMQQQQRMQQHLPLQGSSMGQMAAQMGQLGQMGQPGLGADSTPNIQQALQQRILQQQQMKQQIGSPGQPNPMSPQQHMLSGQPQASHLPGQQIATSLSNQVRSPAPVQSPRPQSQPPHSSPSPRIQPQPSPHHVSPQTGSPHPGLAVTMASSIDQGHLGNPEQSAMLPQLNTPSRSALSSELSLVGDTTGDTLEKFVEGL
pIC50: −log10 of the molar value.

Below are worked cases with known answers.
compound: Cc1cc(/N=N/c2ccc(S(=O)(=O)NC3CCCC3)cc2)c(N)cc1O
pIC50: < 5.00
--
compound: COc1cc(OC)c2c(=O)[nH]c(-c3cc(C)c(OCCO)c(C)c3)nc2c1 [APABETALONE]
pIC50: < 5.00
--
compound: Cc1sc2c(c1C)C(c1ccc(Cl)cc1)=N[C@@H](CC(=O)OC(C)(C)C)c1nnc(C)n1-2
pIC50: 5.02

# context switch: different compound, same pIC50
Hello, I am looking for reported pIC50 with UniProt:Q92793 for `Cc1cc(/N=N/c2ccc3c(c2)CCC(=O)N3)c(N)cc1O` . Could you help? < 5.00

----------
Test system: Mus musculus
assay: Anti-inflammatory activity in poly(I:C)-induced airway inflammation C57BL/6 mouse model assessed as reduction in mCIG5 expression in lung at 10 mg/kg, ip administered 1 day prior to poly(I:C) stimulation and redosed on day 2 followed by poly(I:C) stimulation
Assay type: functional, organism-based
The source made the active and inactive calls. No cut-off for these calls is given here.

chemical structure: Cc1cc(/N=N/c2ccc(S(=O)(=O)NC3CCCC3)cc2)c(N)cc1O
test target: Mus musculus
Activity: Active
--
chemical structure: COc1cc(OC)c2c(=O)[nH]c(-c3cc(C)c(OCCO)c(C)c3)nc2c1
test target: Mus musculus
Activity: inactive
--
chemical structure: Cc1sc2c(c1C)C(c1ccc(Cl)cc1)=N[C@@H](CC(=O)OC(C)(C)C)c1nnc(C)n1-2
test target: Mus musculus
Activity: inactive
--
chemical structure: Cc1cc(/N=N/c2ccc3c(c2)CCC(=O)N3)c(N)cc1O
test target: Mus musculus
Activity: Active

----------
Test system: Mus musculus
assay: Anti-inflammatory activity in poly(I:C)-induced airway inflammation C57BL/6 mouse model assessed as reduction in neutrophils recruitment into bronchoalveolar lavage fluid at 10 mg/kg, ip administered 1 day prior to poly(I:C) stimulation and redosed on day 2 followed by poly(I:C) stimulation by trypan blue staining-based hemocytometric analysis
Type: functional, organism-based
Active and inactive are the calls of the source. The calls are words filed in the database; no cut-off is given here.
Result category, one only: YES = active, NO = inactive

Given `Cc1cc(/N=N/c2ccc(S(=O)(=O)NC3CCCC3)cc2)c(N)cc1O` , state the outcome it received in this test. YES

Recorded test outcome, item `COc1cc(OC)c2c(=O)[nH]c(-c3cc(C)c(OCCO)c(C)c3)nc2c1` NO

What classification did `Cc1sc2c(c1C)C(c1ccc(Cl)cc1)=N[C@@H](CC(=O)OC(C)(C)C)c1nnc(C)n1-2` end up with in this test? NO

Hello, I am checking results. What call was entered for `Cc1cc(/N=N/c2ccc3c(c2)CCC(=O)N3)c(N)cc1O` ? YES

----------
test target: hERG (KCNH2) (Homo sapiens, UniProt Q12809)
assay: Displacement of [3H]Dofetilide from human ERG at 10 uM after 60 mins by scintillation counting analysis relative to control
condition context: probe [3H]Dofetilide, read-out: Activity
reported metric: inhibition at 1 h, 10 µM (%)
Just the number in %, nothing appended.

Query (compound): `Cc1cc(/N=N/c2ccc(S(=O)(=O)NC3CCCC3)cc2)c(N)cc1O` ; field requested: inhibition at 1 h, 10 µM 23.6

----------
test target: UniProt P21396
Sequence (P21396 whole entry): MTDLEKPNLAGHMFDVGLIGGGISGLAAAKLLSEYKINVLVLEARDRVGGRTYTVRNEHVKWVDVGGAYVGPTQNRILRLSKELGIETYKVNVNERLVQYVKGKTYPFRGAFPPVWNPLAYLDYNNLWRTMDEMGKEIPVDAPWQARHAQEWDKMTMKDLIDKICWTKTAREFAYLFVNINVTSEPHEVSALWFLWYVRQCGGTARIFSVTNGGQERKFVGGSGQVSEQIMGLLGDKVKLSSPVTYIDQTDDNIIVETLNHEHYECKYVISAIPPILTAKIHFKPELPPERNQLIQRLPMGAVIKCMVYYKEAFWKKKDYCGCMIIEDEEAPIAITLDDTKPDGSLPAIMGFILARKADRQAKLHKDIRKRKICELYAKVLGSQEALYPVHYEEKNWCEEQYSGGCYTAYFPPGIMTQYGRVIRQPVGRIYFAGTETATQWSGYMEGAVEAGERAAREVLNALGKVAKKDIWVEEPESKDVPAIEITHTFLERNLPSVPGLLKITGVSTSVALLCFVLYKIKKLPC
assay: Displacement of [3H]Ro 41-1049 from rat MAO-A at 10 uM after 120 mins by scintillation counting analysis relative to control
condition context: probe [3H]Ro 41-1049, read-out: Activity
reported metric: inhibition at 2 h, 10 µM (%)
Express the result in % but write the number alone.

Name the recorded inhibition at 2 h, 10 µM for `Cc1cc(/N=N/c2ccc(S(=O)(=O)NC3CCCC3)cc2)c(N)cc1O` . 49.8

----------
test target: Bromodomain-containing protein 4 (Homo sapiens)
assay: Inhibition of BRD4 in human SAE cells assessed as reduction in TLR3 agonist poly(I:C) -induced ISG54 RNA expression preincubated for 24 hrs followed by poly(I:C) addition and measured after 4 hrs by SYBR green dye-based qRT-PCR analysis
Type: cell-based
Listing of recorded pIC50 by entry.
A value of pIC50 is the negative decimal logarithm of a concentration given in moles per litre.

chemical structure: CC(C)(C)c1cc(-c2nnc(-c3cc(F)cc(Cl)c3)o2)no1
pIC50: 5.10

Consider the record given below.
Item under review: `Cc1cc(/N=N/c2ccc3c(c2)CCC(=O)N3)c(N)cc1O` . Reported pIC50? 6.31

----------
assay: Cmax in rat at 20 mg/kg, po
Assay type: ADME, organism-based
Parameters: dose 20 mg/kg, route oral
condition context: in vivo
reported metric: Cmax (ng/mL)
Lab book: enter the figure in ng/mL, no units written.

chemical structure: Cc1cc(/N=N/c2ccc(S(=O)(=O)NC3CCCC3)cc2)c(N)cc1O
Cmax / ng/mL: 36

// switching to the query molecule
Could you share which Cmax value was measured for `Cc1cc(/N=N/c2ccc3c(c2)CCC(=O)N3)c(N)cc1O` ? 80

----------
test target: Cav1.2 (L-type calcium channel) (Rattus norvegicus)
Sequence (P22002 whole entry): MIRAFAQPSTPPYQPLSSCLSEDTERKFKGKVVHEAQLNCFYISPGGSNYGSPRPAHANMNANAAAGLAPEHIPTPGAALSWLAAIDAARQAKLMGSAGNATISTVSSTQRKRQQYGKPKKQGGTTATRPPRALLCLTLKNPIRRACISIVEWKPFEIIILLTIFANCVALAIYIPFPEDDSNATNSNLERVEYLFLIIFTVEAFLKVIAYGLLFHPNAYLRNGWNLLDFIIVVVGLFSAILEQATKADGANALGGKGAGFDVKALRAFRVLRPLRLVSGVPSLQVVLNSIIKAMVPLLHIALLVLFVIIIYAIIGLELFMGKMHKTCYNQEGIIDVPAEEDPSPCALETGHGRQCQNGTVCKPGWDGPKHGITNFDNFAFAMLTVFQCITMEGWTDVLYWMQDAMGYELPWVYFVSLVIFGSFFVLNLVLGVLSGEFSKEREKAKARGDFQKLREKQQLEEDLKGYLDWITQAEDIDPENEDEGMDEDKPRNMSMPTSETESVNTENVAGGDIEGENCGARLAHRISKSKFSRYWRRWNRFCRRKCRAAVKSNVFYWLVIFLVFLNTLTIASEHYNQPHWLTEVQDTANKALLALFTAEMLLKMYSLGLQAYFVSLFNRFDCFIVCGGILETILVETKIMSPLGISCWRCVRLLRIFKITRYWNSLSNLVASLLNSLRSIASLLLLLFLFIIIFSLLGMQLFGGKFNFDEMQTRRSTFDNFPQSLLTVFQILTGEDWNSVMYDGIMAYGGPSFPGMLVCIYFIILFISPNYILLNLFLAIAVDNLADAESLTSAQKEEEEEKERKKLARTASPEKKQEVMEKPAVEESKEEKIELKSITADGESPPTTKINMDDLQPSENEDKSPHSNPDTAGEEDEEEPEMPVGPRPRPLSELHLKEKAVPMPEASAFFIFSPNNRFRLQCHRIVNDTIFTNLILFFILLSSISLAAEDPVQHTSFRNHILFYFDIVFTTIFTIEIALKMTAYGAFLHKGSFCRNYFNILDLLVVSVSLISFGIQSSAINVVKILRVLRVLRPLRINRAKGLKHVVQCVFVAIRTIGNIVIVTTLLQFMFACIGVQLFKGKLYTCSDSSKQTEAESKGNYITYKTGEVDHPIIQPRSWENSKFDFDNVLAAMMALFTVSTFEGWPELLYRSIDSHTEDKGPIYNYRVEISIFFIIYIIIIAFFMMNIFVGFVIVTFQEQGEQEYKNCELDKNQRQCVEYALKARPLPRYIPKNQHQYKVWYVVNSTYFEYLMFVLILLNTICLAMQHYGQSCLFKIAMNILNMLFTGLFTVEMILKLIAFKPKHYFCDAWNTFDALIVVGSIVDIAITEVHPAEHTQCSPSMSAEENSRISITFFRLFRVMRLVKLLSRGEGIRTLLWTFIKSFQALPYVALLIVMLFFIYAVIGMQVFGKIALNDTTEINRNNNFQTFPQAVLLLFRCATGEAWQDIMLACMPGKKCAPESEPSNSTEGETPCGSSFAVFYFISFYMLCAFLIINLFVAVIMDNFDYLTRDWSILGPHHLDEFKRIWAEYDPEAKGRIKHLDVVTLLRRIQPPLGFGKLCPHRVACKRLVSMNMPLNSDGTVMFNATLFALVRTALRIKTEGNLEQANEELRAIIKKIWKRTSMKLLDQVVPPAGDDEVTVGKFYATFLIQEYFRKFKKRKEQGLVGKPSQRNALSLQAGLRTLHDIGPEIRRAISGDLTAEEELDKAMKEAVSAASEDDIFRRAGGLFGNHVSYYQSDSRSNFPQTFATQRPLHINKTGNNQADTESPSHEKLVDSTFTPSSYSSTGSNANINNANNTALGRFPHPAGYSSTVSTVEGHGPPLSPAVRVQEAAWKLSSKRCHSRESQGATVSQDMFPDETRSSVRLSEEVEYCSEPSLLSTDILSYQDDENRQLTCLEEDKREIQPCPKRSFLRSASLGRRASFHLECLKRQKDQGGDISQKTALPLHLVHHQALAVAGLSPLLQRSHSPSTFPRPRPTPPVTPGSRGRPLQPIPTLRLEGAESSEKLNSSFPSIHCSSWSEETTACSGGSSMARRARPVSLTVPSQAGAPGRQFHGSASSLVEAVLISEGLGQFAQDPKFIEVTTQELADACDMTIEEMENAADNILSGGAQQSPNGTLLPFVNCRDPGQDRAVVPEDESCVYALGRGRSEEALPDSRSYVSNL
assay: Displacement of [3H]nitrendipine from rat Cav1.2 (L-type) at 10 uM after 90 mins by scintillation counting analysis relative to control
condition context: probe [3H]nitrendipine, read-out: Activity
reported metric: inhibition at […], 10 µM (%)
Numbers only here, please. The scale is %.

Query: inhibition at […], 10 µM; subject: `Cc1cc(/N=N/c2ccc(S(=O)(=O)NC3CCCC3)cc2)c(N)cc1O` 42

----------
assay: AUC (0 to t) in rat at 20 mg/kg, po
Assay type: ADME, organism-based
condition context: in vivo
reported metric: AUC(0-t) (ng·h/mL)
The figure you give is taken to be in ng·h/mL; do not add the unit.

chemical structure: Cc1cc(/N=N/c2ccc(S(=O)(=O)NC3CCCC3)cc2)c(N)cc1O
AUC(0-t) / ng·h/mL: 104

Report AUC(0-t) for `Cc1cc(/N=N/c2ccc3c(c2)CCC(=O)N3)c(N)cc1O` please. 450

----------
clearance overview
assay: Total clearance in rat at 10 mg/kg, iv
Format: ADME, organism-based
condition context: in vivo
# unit: mL/min/kg | format: bare number

chemical structure: Cc1cc(/N=N/c2ccc(S(=O)(=O)NC3CCCC3)cc2)c(N)cc1O
clearance, mL/min/kg: 14.7

Note: attention shifts to another entry.
Field request: clearance | item: `Cc1cc(/N=N/c2ccc3c(c2)CCC(=O)N3)c(N)cc1O` 11.5

----------
pIC50 values, listed per item
test target: Bromodomain-containing protein 4 (Homo sapiens)
assay: Inhibition of BRD4 in human SAE cells assessed as reduction in TLR3 agonist poly(I:C) -induced IL-8 RNA expression preincubated for 24 hrs followed by poly(I:C) addition and measured after 4 hrs by SYBR green dye-based qRT-PCR analysis
Type: cell-based
Expect pIC50 as a plain number equal to -log10 of the molar concentration.

chemical structure: CC(C)(C)c1cc(-c2nnc(-c3cc(F)cc(Cl)c3)o2)no1
test target: Bromodomain-containing protein 4 (Homo sapiens)
value measured: 5.37

I would be grateful if you could share the reported pIC50 for `Cc1cc(/N=N/c2ccc3c(c2)CCC(=O)N3)c(N)cc1O` . 6.28
